Entry source: ChEMBL document CHEMBL3044745

System: Staphylococcus aureus
Test: Antibacterial activity against Staphylococcus aureus assessed as growth inhibition at 10 ug/disk
Format: functional
Conditions: read-out: IZ
Listing of entries alongside the reported zone of inhibition at 10 µg/disc.

In the examples that follow, each entry is paired with its recorded zone of inhibition at 10 µg/disc.
Clc1ccc(OCc2ccccc2-c2nc(CN3CCN(C(c4ccccc4)c4ccccc4)CC3)cs2)cc1: 28 mm
Cc1cccc(OCc2ccccc2-c2nc(COc3ccc(Cl)cc3)cs2)c1: 24 mm
Cc1ccc(OCc2ccccc2-c2nc(-c3ccc(O)c(C(N)=O)c3)cs2)cc1: 20 mm

Query: // query zone of inhibition at 10 µg/disc value for entry Cc1ccc(OCc2ccccc2-c2nc(-c3ccc([N+](=O)[O-])cc3)cs2)cc1
Response: 12 mm

Query: // query zone of inhibition at 10 µg/disc value for entry O=[N+]([O-])c1ccc(-c2csc(-c3ccccc3COc3ccc(Cl)cc3)n2)cc1
Response: 22 mm

---

Test system: Escherichia coli
Assay: Antibacterial activity against Escherichia coli assessed as growth inhibition at 10 ug/disk
Format: functional
Details: read-out: IZ
Entry flag: criterion met if zone of inhibition at 10 µg/disc reaches 20 mm; criterion not met if it does not.

These recorded examples may help you get a feel for the data.
Cc1ccc(OCc2ccccc2-c2nc(COc3ccc(Cl)cc3)cs2)cc1: criterion met
Clc1ccc(OCc2ccccc2-c2nc(CN3CCN(C(c4ccccc4)c4ccc(Cl)cc4)CC3)cs2)cc1 (centres undefined): criterion met
Cc1ccc(OCc2ccccc2-c2nc(CN3CCN(C(c4ccccc4)c4ccc(Cl)cc4)CC3)cs2)cc1 (centres undefined): criterion met
Cc1cccc(OCc2ccccc2-c2nc(CN3CCN(C(c4ccccc4)c4ccccc4)CC3)cs2)c1: criterion met
Cc1cccc(OCc2ccccc2-c2nc(-c3ccc([N+](=O)[O-])cc3)cs2)c1: criterion not met

Query: Identify whether the reported zone of inhibition at 10 µg/disc of the following molecule is 20 mm or greater: Clc1ccc(OCc2ccccc2-c2nc(CN3CCN(C(c4ccccc4)c4ccccc4)CC3)cs2)cc1
Response: criterion met

Query: Identify whether the reported zone of inhibition at 10 µg/disc of the following molecule is 20 mm or greater: Cc1cccc(OCc2ccccc2-c2nc(-c3cccc(Br)c3)cs2)c1
Response: criterion not met

Query: Identify whether the reported zone of inhibition at 10 µg/disc of the following molecule is 20 mm or greater: Cc1cccc(OCc2ccccc2-c2nc(CN3CCN(C(c4ccccc4)c4ccc(Cl)cc4)CC3)cs2)c1 (centres undefined)
Response: criterion met

---

Tested on: Escherichia coli
Assay: Antibacterial activity against Escherichia coli assessed as growth inhibition at 10 ug/disk
Type: functional
Conditions: read-out: IZ
Listing of entries alongside the reported zone of inhibition at 10 µg/disc.

Cc1ccc(OCc2ccccc2-c2nc(-c3cc(Cl)sc3S(N)(=O)=O)cs2)cc1: 22 mm
Cc1ccc(OCc2ccccc2-c2nc(-c3ccc([N+](=O)[O-])cc3)cs2)cc1: 10 mm
Cc1ccc(OCc2ccccc2-c2nc(-c3cccc(Br)c3)cs2)cc1: 8 mm
Cc1cccc(OCc2ccccc2-c2nc(-c3cc(Cl)sc3S(N)(=O)=O)cs2)c1: 20 mm
Clc1ccc(OCc2ccccc2-c2nc(-c3cccc(Br)c3)cs2)cc1: 22 mm
O=C(O)c1cn(C2CC2)c2cc(N3CCNCC3)c(F)cc2c1=O: 28 mm

Query: // query zone of inhibition at 10 µg/disc value for entry Clc1ccc(OCc2csc(-c3ccccc3COc3ccc(Cl)cc3)n2)cc1
Response: 26 mm

Query: // query zone of inhibition at 10 µg/disc value for entry Cc1ccccc1OCc1ccccc1-c1nc(-c2ccc([N+](=O)[O-])cc2)cs1
Response: 14 mm

Query: // query zone of inhibition at 10 µg/disc value for entry Cc1ccccc1OCc1ccccc1-c1nc(-c2cccc(Br)c2)cs1
Response: 8 mm

Query: // query zone of inhibition at 10 µg/disc value for entry Cc1ccccc1OCc1ccccc1-c1nc(CN2CCN(C(c3ccccc3)c3ccccc3)CC2)cs1
Response: 20 mm

Query: // query zone of inhibition at 10 µg/disc value for entry O=[N+]([O-])c1ccc(-c2csc(-c3ccccc3COc3ccc(Cl)cc3)n2)cc1
Response: 22 mm

Query: // query zone of inhibition at 10 µg/disc value for entry Cc1ccccc1OCc1ccccc1-c1nc(CN2CCN(C(c3ccccc3)c3ccc(Cl)cc3)CC2)cs1 (stereo not given)
Response: 26 mm

Query: // query zone of inhibition at 10 µg/disc value for entry Cc1ccccc1OCc1ccccc1-c1nc(COc2ccc(Cl)cc2)cs1
Response: 22 mm
